- Tested on: SK-MEL-2 melanoma
- ASSAY METHOD TEXT: NCI-60 one-dose screen, 48 h
- PROTOCOL CONDITIONS: 10 µM unless noted
About 83,000 compounds went through this panel and 20% of them were active in at least one assay; those are over-represented in the sample as a whole. Activity calls are given as the source filed them. Rule for the calls: active = growth percent below 10; inactive = the rest.
Field 'call' accepts active, inactive

Below, 10 compounds whose answers are already recorded.
- O=C(Nc1cnc(Nc2ccc(N3CCOCC3)nc2)nc1Oc1ccc(C(F)(F)F)cc1)c1ccncc1: inactive
- Cc1ccc(S(=O)(=O)N2CCC(=O)c3ccccc32)cc1: inactive
- CCCCNC(=O)c1cc([N+](=O)[O-])cc(C2CCCCC2)c1O: inactive
- CCN(CC)CCCN1C(=O)c2c(c(C)c3c(oc4ccc(OC)cc43)c2C)C1=O: inactive
- CC1(C)OB(O)c2cc(-c3nc4ccc5[nH]ncc5c4c4c3CCCC4)ccc21: inactive
- FC(F)(F)Oc1cccc(-c2cnc3ccc(-c4ccncc4)nn23)c1: active
- Cc1ccc(S(=O)(=O)Oc2ccc3sc4cccc(NCCN(C)C)c4c(=O)c3c2)cc1: active
- O=S(=O)(NCCNc1nccc(-c2c(-c3cccc(O)c3)nc3occn23)n1)c1ccc(Br)cc1: inactive
- Cn1cc(-c2ccc(-c3cn(C)c4ccc(Cl)cc34)[nH]2)c2cc(Cl)ccc21: active
- COc1ccc(-c2cc(-c3ccccc3)nc(N3CCN(CCNc4ccnc5cc(Cl)ccc45)CC3)n2)cc1: active

Prompt line: How was CC(=C(c1ccc(OCCN2CCCCC2)cc1)c1ccc(OCCN2CCCCC2)cc1)c1ccc(Cl)cc1 classified in this test?
Response line: active

Prompt line: How was CCN(CC)CCCN1C(=O)c2c(c(C)c3c(oc4ccc(O)cc43)c2C)C1=O classified in this test?
Response line: inactive

Prompt line: How was Cc1ccc(-c2nc3nc(-c4ccccc4)nc(N4CCCN(S(C)(=O)=O)CC4)c3o2)cc1 classified in this test?
Response line: inactive

Prompt line: How was COc1ccc(C(=O)/C=C/c2ccc(Cl)cc2)cc1S(=O)(=O)Nc1c(N)nc(SC)[nH]c1=O classified in this test?
Response line: inactive

Prompt line: How was C=CN(C(=O)N1CCN(c2cc3c(cc2F)c(=O)c(C(=O)O)cn3C2CC2)CC1)c1nc(-c2ccc(OC)cc2)cs1 classified in this test?
Response line: inactive

Prompt line: How was CCOC(=O)C1=C(C)C(Cl)=N/C1=C\c1[nH]c(Cl)c(C)c1C(=O)OCC classified in this test?
Response line: inactive

Prompt line: How was Cc1ccc2c(-n3nc(C#N)c(C#N)c3N)cc(=O)[nH]c2c1 classified in this test?
Response line: inactive

Prompt line: How was CC1(C)N=C(N)N=C(N)N1c1cccc(CCc2ccccc2)c1 classified in this test?
Response line: inactive

Prompt line: How was Nc1nc(N)c(N=Nc2ccccc2)c(-c2ccccc2)n1 classified in this test?
Response line: inactive

Prompt line: How was c1ccc(CCNc2c3ccccc3nc3ccccc23)cc1 classified in this test?
Response line: inactive
